# Test system: MOLT-4 leukemia
# test description: NCI tumour cell line growth inhibition, 48 h
Would you mind telling me the reported TGI of each entry?

Problem: Recall the recorded TGI for O=C1CC[C@@H](NC(=O)Cc2ccccc2)C(=O)N1 with MOLT-4 leukemia and state it.
Solution: > 100 µM

Problem: MOLT-4 leukemia / TGI / Cn1ccoc1=Nc1ccc(Cl)c(Cl)c1 : value?
Solution: > 10 µM

Problem: Value wanted: TGI (MOLT-4 leukemia) of entry Nc1nc(OCC2CCCCC2)c2[nH]cnc2n1
Solution: > 68.8 µM

Problem: Notebook: pull reported TGI for MOLT-4 leukemia, entry COC(=O)NC(=O)c1cn(C2CCCCC2)c(=O)[nH]c1=O
Solution: > 100 µM

Problem: Any idea what TGI came out for CCCCC(C(=O)CCC(=O)Nc1ccc(Cl)cc1)C(=O)C(C)C (configuration not stated) on MOLT-4 leukemia?
Solution: > 100 µM

Problem: Test system MOLT-4 leukemia; read-out TGI; what value for CC(=O)Oc1ccc(/C=C/C(=O)OCCOC(=O)/C=C/c2ccc(OC(C)=O)c(OC(C)=O)c2)cc1OC(C)=O ?
Solution: > 38.5 µM

Problem: So what TGI did Cc1c(N=Nc2ccc(Cl)cc2)c(C)n(C2OC(CO)C(O)C(O)C2O)c(=S)c1C#N (configuration not stated) get with MOLT-4 leukemia?
Solution: 42.3 µM

Problem: Record COC1=CC(=O)C2C(C1=O)C(c1ccc(Cl)cc1)[C@@H]2C (some centres not stated) : what is its TGI with MOLT-4 leukemia?
Solution: 81.7 µM

Problem: Find TGI (MOLT-4 leukemia) for the entry CO/N=C(\C)c1cccc(Nc2nc3ccccc3c3occc23)c1
Solution: 37.3 µM

Problem: For the record O=C(NNC(=O)c1ccccc1O)c1ccco1 , what value of TGI is listed for MOLT-4 leukemia?
Solution: > 100 µM

Problem: Give the reported TGI for COC(=O)c1ccc(/C=C2\Oc3cc(O)ccc3C2=O)cc1 (system: MOLT-4 leukemia).
Solution: > 100 µM

Problem: Lab request: please report TGI under test system MOLT-4 leukemia for N#Cc1c(N)c(C#N)c2c(c1-c1ccc(Cl)cc1)COc1ccc(F)cc1-2
Solution: > 50 µM

Problem: # get_value(readout= TGI, system= MOLT-4 leukemia) for COC(=O)C1(C)CCCC2(C)c3cc(OC)ccc3C(=O)C(Br)C12 (configuration not stated)
Solution: 4.17 µM

Problem: Notebook: pull reported TGI for MOLT-4 leukemia, entry COc1cc2c(cc1OC)C(=O)/C(=C/c1cc(Cl)cc(Cl)c1)C2
Solution: > 100 µM

Problem: Kindly state the measured TGI obtained for COC1=CC2CCN3Cc4cc5c(cc4C(C1O)C23)OCC5 (configuration not stated) with MOLT-4 leukemia.
Solution: > 100 µM

Problem: Please tell me: TGI of COc1ccc2c(c1)/C(=C\c1c(Cl)n(-c3ccccc3)c3ccccc13)C(=O)N2 , system MOLT-4 leukemia?
Solution: > 100 µM

Problem: Recorded TGI for O=c1c2n[nH]nc2nc2n1CC(c1ccccc1)S2 (configuration not stated) with MOLT-4 leukemia, please?
Solution: > 100 µM

---

# Tested on: 786-0 renal
# test description: NCI tumour cell line growth inhibition, 48 h
Assignment: determine reported TGI for the given compounds.

Problem: Record CC[C@@]1(O)C(=O)NCc2c1cc1n(c2=O)Cc2cc3c(NC(C)=O)cccc3nc2-1 : what is its TGI with 786-0 renal?
Solution: > 100 µM

Problem: Request: TGI, test system 786-0 renal, entry CSc1ccc(/C=C2\N=C(c3ccccc3)N(/N=C3\C(=O)Nc4ccccc43)C2=O)cc1
Solution: > 100 µM

Problem: GET /values?readout=TGI&system=786-0 renal&item= CC12CC(=O)C3C(CCC4=CC(=O)CCC43C)C1CC=C2CC(=O)O (stereo unspecified)
Solution: > 100 µM

Problem: Provide value of TGI for this record tested with 786-0 renal: Cn1cc(C2=C(c3c(S(C)=O)n(C)c4ccccc34)C(=O)NC2=O)c2ccccc21 (stereo unspecified)
Solution: > 25 µM

Problem: What value of TGI on 786-0 renal does N=C1/C(=C2\Nc3ccccc3S2)CC(=O)N1c1ccc(SC(F)F)cc1 have?
Solution: > 100 µM

Problem: Find TGI (786-0 renal) for the entry CCSc1nc(-c2cccs2)nc2ccc(I)cc12
Solution: > 100 µM

---

# Tested on: NCI-H23 lung
# test description: NCI tumour cell line growth inhibition, 48 h
metric: TGI (µM)
Could you give me the number in µM? Just the number is fine.

Problem: For the compound OCc1ccc(N(Cc2ccc(F)cc2)CC2CCC2)cc1Cl , what TGI is on record?
Solution: 24.7

Problem: Consider the compound COc1cc(Cn2c(SCC(=O)Nc3ccc(Cl)cc3)nc3ccccc3c2=O)cc(OC)c1OC and give its measured TGI.
Solution: 72.6

Problem: For COc1ccc2c(c1)/C(=C\c1c(Cl)n(-c3ccccc3)c3ccccc13)C(=O)N2 , what is its reported TGI?
Solution: 38.4

Problem: Name the recorded TGI for N#CC1=C(N)OC(c2cccc([N+](=O)[O-])c2)C1(C#N)C#N (stereo not given) .
Solution: 39.3

---

# Tested on: COLO 205 colon
# test description: NCI tumour cell line growth inhibition, 48 h
metric: TGI

Problem: So what's the measured TGI for this one? c1ccc2c3nnc(c2c1)SCCCSc1nnc(c2ccccc12)SCCCS3
Solution: > 100 µM

Problem: For the molecule shown here, COc1ccc2nc3c([N+](=O)[O-])ccc(NCCN(C)C)c3c(NCCN(C)C)c2c1 , give the reported TGI.
Solution: > 10 µM

Problem: Could you share which TGI value was measured for c1cc2c(c(NC3=NCCN3)c1)CCCC2 ?
Solution: > 100 µM

Problem: Given the molecule CNc1ncnc2c1cnn2CCCCO , what is its reported TGI?
Solution: > 100 µM

---

# System: MALME-3M melanoma
# test description: NCI tumour cell line growth inhibition, 48 h
metric: TGI

Problem: What value of TGI has been recorded for this entry: Nc1c(Br)cc(-c2nc3ccccc3s2)cc1Br
Solution: > 100 µM

Problem: # get_value(readout='TGI', item= CCSc1nnc(-c2ccccc2)nc1Cc1ccc(OC)cc1 )
Solution: > 100 µM

Problem: Can you look up the measured TGI of CN1CCc2cc3c4cc2C1Cc1ccc(cc1)Oc1cc(ccc1O)CC1c2c(cc(O)c(c2O4)O3)CCN1C (centres undefined) for me?
Solution: 3.56 µM

Problem: I'd like to know its TGI. The compound in question is O=C(/C=C/c1ccc(O)cc1)c1cc(Cl)ccc1O
Solution: > 100 µM

---

# System: MOLT-4 leukemia
# test description: NCI tumour cell line growth inhibition, 48 h
Please provide measured log10(TGI) for the entries that follow.
Please be aware that the numbers have been log10-transformed from TGI in µM.

Problem: # input molecule: COc1ccc(/C=C2\N=C(c3ccccc3)OC2=O)cc1OC(C)=O ; wanted: its log10(TGI)
Solution: 1.42

Problem: Which value of log10(TGI) has been reported for COc1cc(/C=C/c2cc(O)c(C/C=C(\C)CC/C=C(\C)CO)c(O)c2)cc2c1O[C@]1(C)CC[C@@H](O)C(C)(C)[C@H]1C2 in the records?
Solution: -1.02

Problem: Need log10(TGI) of Cc1ccc(S(=O)(=O)N/N=C2\CC(C)OC3=C2CCCCCC3)cc1 (centres undefined) , thanks.
Solution: 1.75

Problem: Need log10(TGI), item N=c1oc2ccccc2cc1C(=O)Nc1nccs1
Solution: 1.34

Problem: Any idea what log10(TGI) was measured for CCn1c(O)c(C=Nc2ccccc2)s/c1=N/Nc1nc(-c2ccc(O)c(O)c2)cs1 ?
Solution: 1.96

Problem: Which log10(TGI) reading was recorded for the molecule Cc1cc(C#Cc2ccccc2)ccc1-n1c(/C=C/c2cc(O)ccc2O)nc2ccccc2c1=O ?
Solution: 0.60

---

Please provide measured GI50 for the entries that follow.
# System: HOP-62 NSCLC
# test description: NCI tumour cell line growth inhibition, 48 h

Problem: What GI50 value was documented for this molecule, COC1=CC2CCN3Cc4cc5c(cc4C(C1O)C23)OCC5 (stereo unspecified) ?
Solution: 3.61 µM

Problem: Find the recorded GI50 belonging to CC(=O)C(C=O)C(C)=O.CC(=O)CC(C)=O.CC(=O)CC(C)=O.[Ru] and report it.
Solution: 32.4 µM

Problem: Returns the measured GI50 for the input molecule. Input: Cn1cc(C2=C(c3c(S(C)=O)n(C)c4ccccc34)C(=O)NC2=O)c2ccccc21 (stereo unspecified)
Solution: 8.34 µM

Problem: What value of measured GI50 is listed for Cc1[nH]n(-c2cccc(Cl)c2)c(=O)c1/C=C1\C=c2ccccc2=CC1=O ?
Solution: 31.4 µM

Problem: # query: GI50 of entry COC(=O)[C@]12CC[C@@H](C)[C@H](C)[C@@H]1C1=CC[C@@H]3[C@@]4(C)CC(=O)[C@H](O)[C@@](C)(CO)[C@@H]4C(=O)C[C@@]3(C)[C@]1(C)CC2
Solution: 13.3 µM

Problem: # input molecule: O=C1NC(=O)C(c2c[nH]c3ccccc23)=C1c1ccccc1 ; wanted: its GI50
Solution: > 25 µM

Problem: Given O=C1N=C(Nc2nc(-c3csc(NC4=NC(=O)/C(=C\c5ccc(Cl)cc5)S4)n3)cs2)S/C1=C/c1ccc(Cl)cc1 , state its recorded GI50.
Solution: 3.29 µM

Problem: Suppose we examine the molecule Cc1cc2c(cc1Cl)SC(C(=O)c1ccc(Cl)c(Cl)c1)NS2(=O)=O (stereo unspecified) ; what GI50 value has been reported?
Solution: 39.3 µM

Problem: Consider the molecule shown here: O=C1/C(=C/c2ccccc2[N+](=O)[O-])COc2ccc(O)c(O)c21 What is its recorded GI50?
Solution: 3.55 µM

Problem: Record request: GI50 value, item Fc1ccc(C2C3CCOc4c(ccc5ccccc45)C3=NN2c2ccccc2)cc1 (stereo unspecified)
Solution: > 100 µM

Problem: If you can, please state the reported GI50 value of CC1COCCN1CC#CCOC(=O)c1cc2ccccc2oc1=O (stereo unspecified) .
Solution: > 100 µM

Origin of measurements: PubChem BioAssay (NCI)
